experimental.target: human PAH with the R408W mutation (Homo sapiens, UniProt P00439, R408W)
Construct: expressed in transfected cells
Sequence (P00439 whole entry R408W): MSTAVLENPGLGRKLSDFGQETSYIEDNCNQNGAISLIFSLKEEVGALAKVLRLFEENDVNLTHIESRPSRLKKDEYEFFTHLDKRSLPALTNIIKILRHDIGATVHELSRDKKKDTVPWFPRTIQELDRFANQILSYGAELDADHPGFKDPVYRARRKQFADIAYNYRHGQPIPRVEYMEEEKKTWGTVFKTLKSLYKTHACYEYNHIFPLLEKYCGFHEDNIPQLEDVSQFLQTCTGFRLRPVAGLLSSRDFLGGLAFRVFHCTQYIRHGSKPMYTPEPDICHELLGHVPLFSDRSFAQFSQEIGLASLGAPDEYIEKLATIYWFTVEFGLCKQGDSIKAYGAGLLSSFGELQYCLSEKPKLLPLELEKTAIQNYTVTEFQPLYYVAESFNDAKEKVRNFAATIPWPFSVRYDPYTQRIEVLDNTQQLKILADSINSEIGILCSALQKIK
experiment: Cell Based Phenylalanine Flux Assay
assay.setup: A375 cells expressing human R408W PAH; 24 hrs compound incubation; 13C-Tyrosine by LC-MS; average where tested multiple times; read-out: AC50
test.readout: AC50

Record lookup: for human PAH with the R408W mutation (Homo sapiens, UniProt P00439, R408W), what AC50 belongs to CC(C)(C)n1ncc(C(=O)N2CCc3[nH]cnc3[C@@H]2c2nc3c(F)cccc3s2)c1Cl [Example 1932] ?
1000 to 5000 nM

Subsequent entry: O=C(c1cn[nH]c1Cl)N1CCc2[nH]cnc2[C@H]1c1nc2c(F)cccc2s1 [Example 1862]
500 to 1000 nM

Cn1cc(C(=O)N2CCc3[nH]cnc3[C@@H]2c2nc3ccccc3s2)c(C(F)F)n1 [Example 1822] , same question.
1000 to 5000 nM

Now give it for O=C(c1nnc(-n2cccn2)o1)N1CCc2[nH]cnc2[C@H]1c1nc2ccccc2s1 [Example 1792] too.
< 500 nM

Consider next the compound O=C(c1ncn2ccccc12)N1CCc2[nH]cnc2[C@H]1c1nc2c(F)cccc2s1 [Example 1143] in the same way.
500 to 1000 nM

Try O=C(c1ccnn1C(F)(F)F)N1CCc2[nH]cnc2[C@@H]1c1nc2ccccc2s1 [Example 2098] next.
500 to 1000 nM

Can you handle Cc1nc(C(C)(C)O)oc1C(=O)N1CCc2[nH]cnc2[C@@H]1c1nc2c(C(F)(F)F)cccc2s1 [Example 2116] next?
1000 to 5000 nM

What do we get for O=C(c1nnc(-c2cc(C(F)(F)F)ccn2)o1)N1CCc2[nH]cnc2[C@H]1c1nc2ccccc2s1 [Example 1889] ?
< 500 nM
